Form field: protein stability index (one value per entry).
B1: CCNC (parent)
chain: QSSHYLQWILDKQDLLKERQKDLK

Variants of: B1
Assay: protein stability index of a GFP-peptide fusion (GPS, HEK-293T) (PSI 1-6); higher = more stable;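 also: lentivirally expressed fusions sorted by FACS into six bins by GFP to DsRed ratio, PSI derived from sequencing read proportions per bin multiplied by bin number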
Settings: c terminus: a fixed tail appended

>  <seqText>
QSSHYLQWWLDKQDLLKERQKDLK

>  <result>
3.83

$$$$
>  <seqText>
QSSHYLQWILDKQDLLPERQKDLK

>  <result>
3.38

$$$$
>  <seqText>
QSSHYLQWILDKQDLLKERQIDLK

>  <result>
3.01

$$$$

Fill in the blank: the reported protein stability index of "QSSHYLQWILMKQDLLKERQKDLK" is ____.
2.36

Fill in the blank: the reported protein stability index of "QSSHYLQWILDKQDLLKERQKNLK" is ____.
2.9

Fill in the blank: the reported protein stability index of "QSSHYLQWIFDKQDLLKERQKDLK" is ____.
3.4

Fill in the blank: the reported protein stability index of "QSSHYNQWILDKQDLLKERQKDLK" is ____.
4.03

Fill in the blank: the reported protein stability index of "QSSHYLQWILDKQDLLKESQKDLK" is ____.
2.94

Fill in the blank: the reported protein stability index of "QSSHYLQWIKDKQDLLKERQKDLK" is ____.
3.6

Fill in the blank: the reported protein stability index of "QESHYLQWILDKQDLLKERQKDLK" is ____.
3.3

Fill in the blank: the reported protein stability index of "QSSHYLQWILDKQDLLLERQKDLK" is ____.
2.68

Fill in the blank: the reported protein stability index of "QSSHYLQWILDKPDLLKERQKDLK" is ____.
3.36
